# ASSAY PROTOCOL: HepG2 liver cancer cell viability effects, profiling panel, resazurin fluorescence, 24 h, PK04 Diversity Set (AID 1172); also: test concentration not given here
# ASSAY CONDITIONS: higher = more signal
Please provide measured z-score for the entries that follow.

[ask] Quick one: z-score for C=CC[C@@]12N=C(c3ccc(OCCCO)cc3)O[C@@H]1c1ccccc1N(CCS(=O)(=O)c1ccccc1)C2=O ?
[reply] 0.653

[ask] Quick one: z-score for CCOC(=O)C[C@H]1[C@H](OC(=O)c2ccc(C(=O)c3ccccc3)cc2)[C@@H](NC(=O)c2ccc3ccccc3c2)c2cc(OCCCO)ccc2N1C(=O)c1ccccc1 ?
[reply] -0.55

[ask] Quick one: z-score for C=C(/C=C/CNS(=O)(=O)c1ccc(C)cc1)[C@H](O)[C@H]1CCCN1S(=O)(=O)c1ccccc1[N+](=O)[O-] ?
[reply] -0.0339

[ask] Quick one: z-score for O=C(NC1CC1)[C@@H]1c2ccccc2C(=O)N(Cc2ccccc2)[C@H]1c1ccc(CO)cc1 ?
[reply] 0.0991

[ask] Quick one: z-score for CN1C(=O)C2C(C1=O)C1C=C(c3ccc(CO)cc3)C2C(c2cccs2)N1Cc1cccc(OC(F)(F)F)c1 (stereo not given) ?
[reply] -0.153

[ask] Quick one: z-score for COC(=O)[C@@]1(Cc2ccc(OC)cc2)[C@H]2c3cc(C(=O)N(C)C)n(CCc4c[nH]c5ccc(O)cc45)c3C[C@H]2CN1C(=O)c1ccccc1 ?
[reply] -0.855

[ask] Quick one: z-score for COCCOC(=O)N1C(=O)[C@@]2(c3ccccc31)[C@H](C(=O)N1CCN(c3ncccn3)CC1)[C@H]1C(=O)O[C@H](c3ccccc3)[C@H](c3ccccc3)N1[C@@H]2c1ccc(OCCO)cc1 ?
[reply] 0.0481

[ask] Quick one: z-score for CC(C)N1CC=CC23O[C@@H]4C=CCCOC(=O)C4[C@H]2C(=O)N(CCO)[C@@H]3C1=O (stereo not given in full) ?
[reply] 1.74

[ask] Quick one: z-score for Cc1ccc(S[C@]2(C(=O)NC(C)C)CC(=O)N(Cc3ccccc3C(F)(F)F)[C@@H]2c2ccc(CO)cc2I)cc1 ?
[reply] 0.105

[ask] Quick one: z-score for CCC[C@@H]1C[C@@]1(CCC)[C@@H](NP(=O)(c1ccccc1)c1ccccc1)c1ccc(Cl)cc1 ?
[reply] 0.405

[ask] Quick one: z-score for COCCOC(=O)N1C(=O)[C@@]2(c3cc(C#Cc4ccc(OC)cc4)ccc31)[C@H](C(=O)N1CCCCCCC1)[C@H]1C(=O)O[C@H](c3ccccc3)[C@H](c3ccccc3)N1[C@@H]2c1ccc(O)cc1 ?
[reply] 0.808

[ask] Quick one: z-score for C=CC1c2cc(O)c(OC)cc2CCN1Cc1sc2ccccc2c1Cl (stereo not given) ?
[reply] -0.62

[ask] Quick one: z-score for CC(C)CNC(=O)[C@@]1(c2ccc([N+](=O)[O-])cc2)CC(=O)N(C2CCCCC2)[C@@H]1c1ccc(CO)cc1I ?
[reply] 0.201

[ask] Quick one: z-score for CCCC=C(CCC)[C@@H](NP(=O)(c1ccccc1)c1ccccc1)c1ccc(C(F)(F)F)cc1 ?
[reply] 1.02

[ask] Quick one: z-score for O=C1NC(=O)C2C1C=CC(C(O)c1c(F)cccc1Cl)N2Nc1ccccn1 (stereo not given) ?
[reply] -1.73

====

# ASSAY PROTOCOL: modulators of HCV replicon luciferase signal, primary screen, HCV replication inhibitor project, Huh7 cells, luciferase reporter (AID 1109);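 also: huh7 hepatoma cells harbouring a luciferase neomycin HCV replicon reporter; luciferase luminescence as measure of HCV replicon replication; test concentration not given here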
# ASSAY CONDITIONS: 48 h, higher = more signal
REPORTED METRIC: z-score
Respond using a number only.

[ask] Quick one: z-score for O=C1O[C@@H](c2ccccc2)[C@@H](c2ccccc2)N2[C@@H](c3ccc(O)cc3)[C@]3(C(=O)Nc4ccc(C#CC5=CCCCC5)cc43)[C@@H](C(=O)N3CCN(c4ncccn4)CC3)[C@H]12 ?
[reply] -1.9

[ask] Quick one: z-score for C=C(COC)/C(=C/C[C@@H](OC(=O)c1ccncc1)c1ccc(CO)o1)c1cnc2ccccc2c1 ?
[reply] -0.632

[ask] Quick one: z-score for O=C(NC1CC1)[C@@H]1c2ccccc2C(=O)N(Cc2ccccc2)[C@H]1c1ccc(CO)cc1 ?
[reply] -0.89

[ask] Quick one: z-score for C=CCOC(=O)[C@H]1[C@@H]2C(=O)O[C@@H](c3ccccc3)[C@@H](c3ccccc3)N2[C@@H](c2ccc(OCCOC(=O)[C@H]3C[C@H]4C(=O)N[C@@H](Cc5ccccc5)C(=O)N4[C@H]3c3cccc(OCCO)c3)cc2)[C@]12C(=O)Nc1ccc(I)cc12 ?
[reply] -1.68

[ask] Quick one: z-score for COC(=O)c1c(CC[C@@H](CO)NC(=O)N[C@H](Cn2cc(-c3ccccc3C)nn2)C(C)C)oc(C(C)=O)c1C(=O)OC ?
[reply] -0.515

[ask] Quick one: z-score for COC(=O)[C@@]1(Cc2ccc(OC)cc2)[C@H]2c3cc(C(=O)N(C)C)n(Cc4nc5ccccc5[nH]4)c3C[C@H]2CN1C(=O)c1ccccc1 ?
[reply] -1.81

====

# ASSAY PROTOCOL: compound binding in COS7 lysate, probe aLAP1, primary screen, cell lysate, small-molecule microarray (AID 1124);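 also: lysate comes from COS7 cells expressing LAP1 and is applied at 0.3 µg/mL; score merges spot fluorescence near 667 nm with signal-to-noise over triplicate slides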
# ASSAY CONDITIONS: probe aLAP1, fluorescence, higher = more signal
REPORTED METRIC: composite z-score
Respond using a number only.

[ask] Quick one: composite z-score for C=C(COC)/C(=C/C[C@@H](OC(=O)c1ccncc1)c1cccc(OCCO)c1)c1cnc2ccccc2c1 ?
[reply] 0.919

[ask] Quick one: composite z-score for COc1ccc([Si](C)(C)[C@H]2[C@H](CCn3cc(CCO)nn3)O[C@@]3(C(=O)N(Cc4ccc(N5C(=O)c6cccc7cccc5c67)cc4)c4ccccc43)[C@@H]2C)cc1 ?
[reply] 0.303

[ask] Quick one: composite z-score for CN(C)CCCN1C(=O)[C@@]2(c3ccc([N+](=O)[O-])cc3)CC(=O)N(CC34CC5CC(CC(C5)C3)C4)[C@@H]2c2ccc(CO)cc21 ?
[reply] 0.538

[ask] Quick one: composite z-score for CN(C)C(=O)[C@]1(CCC(=O)OC(C)(C)C)N=C(c2ccc(OCCCO)cc2)O[C@@H]1c1ccccc1 ?
[reply] 0.264

====

# ASSAY PROTOCOL: basal HepG2 mitochondrial membrane potential changes, profiling panel, cell-based, JC-1 fluorescence, 24 h, 100 nL compound (AID 1167); also: test concentration not given here
# ASSAY CONDITIONS: higher = more signal
REPORTED METRIC: z-score
Respond using a number only.

[ask] Quick one: z-score for COc1ccc([Si](C)(C)[C@H]2[C@H](CCn3cc([C@H](O)c4ccccc4)nn3)O[C@@]3(C(=O)N(Cc4ccc(N5CCC5=O)cc4)c4ccccc43)[C@@H]2C)cc1 ?
[reply] 0.411

[ask] Quick one: z-score for C=C(COC)/C(=C/C[C@@H](OC(=O)c1ccncc1)c1cccc(OCCO)c1)c1cnc2ccccc2c1 ?
[reply] 0.862

[ask] Quick one: z-score for O=C1O[C@H](c2ccccc2)[C@H](c2ccccc2)N2[C@H]1[C@@H](C(=O)O)[C@]1(C(=O)Nc3ccccc31)[C@H]2c1ccc(O)cc1 ?
[reply] -1.33

[ask] Quick one: z-score for O=C1O[C@@H](c2ccccc2)[C@@H](c2ccccc2)N2[C@@H](c3ccccc3OCCO)[C@]3(C(=O)Nc4ccc(C#CC5=CCCCC5)cc43)[C@@H](C(=O)NC[C@H](O)c3ccccc3)[C@H]12 ?
[reply] -2.4

[ask] Quick one: z-score for O=C(NC1CC1)[C@@H]1c2ccccc2C(=O)N(Cc2ccccc2)[C@H]1c1ccc(CO)cc1 ?
[reply] 2.33

[ask] Quick one: z-score for O=C1c2ccccc2[C@](Cc2ccccc2I)(C(=O)NCc2ccccc2)[C@H](c2ccc(CO)cc2)N1C1CCCCC1 ?
[reply] 1.36

[ask] Quick one: z-score for CCOC(=O)C[C@H]1[C@H](OC(=O)c2ccccc2-c2ccccc2)[C@@H](NC(=O)CC(C)C)c2cc(OCCCO)ccc2N1C(=O)c1ccc2ccccc2n1 ?
[reply] 0.851

[ask] Quick one: z-score for CCOC(=O)C1=CC[C@@H](c2ccccc2C(F)(F)F)N(S(=O)(=O)c2ccc(C)cc2)C1 ?
[reply] 2.51

[ask] Quick one: z-score for COCCOC(=O)N1C(=O)[C@@]2(c3cc(C#Cc4ccc(OC)cc4)ccc31)[C@H](C(=O)NC[C@H](O)c1ccccc1)[C@H]1C(=O)O[C@H](c3ccccc3)[C@H](c3ccccc3)N1[C@@H]2c1ccc(O)cc1 ?
[reply] -2.11

[ask] Quick one: z-score for C=CCN1C(=O)[C@@]2(O[C@@H](CCn3cc([C@H](O)c4ccccc4)nn3)[C@H]([Si](C)(C)c3ccc(OC)cc3)[C@H]2C)c2ccccc21 ?
[reply] 1.06

[ask] Quick one: z-score for COC(=O)C[C@H]1O[C@]2(C(=O)N(C)c3ccccc32)[C@@H](C)[C@@H]1[Si](C)(C)c1ccc(C)cc1 ?
[reply] -0.39

[ask] Quick one: z-score for CO[C@H]1O[C@H](CO)[C@@H](OC(=O)Nc2ccc(C(F)(F)F)cc2)[C@H](OC(=O)Nc2ccc3c(c2)OCO3)[C@H]1OC(=O)Nc1ccc2c(c1)OCO2 ?
[reply] -0.17

[ask] Quick one: z-score for CCCc1cccc(=O)o1 ?
[reply] -0.147

[ask] Quick one: z-score for CC(C)C(=C=CC[C@H](O)c1ccc(OCCO)cc1)C[C@H](O)c1cc(Cl)cc(Cl)c1O ?
[reply] -1.77
